Hey, just so you know, these numbers are from ChEMBL document CHEMBL5230110.

tested on: Escherichia coli; experiment: Antibacterial activity against Escherichia coli assessed as bacterial growth inhibition at 50 uM measured after 24 hrs by 96-wellplate reader assay method; format: functional
measure: MIC

In: So what does the record say about MIC for "Oc1ccccc1Oc1ccccc1" ?
Out: 3.7 µg/mL

In: Tell me the measured MIC of "Cc1ccc(Oc2ccccc2)c(O)c1" , please.
Out: 1 µg/mL

In: May I ask what MIC has been recorded for "Oc1cc(Cl)ccc1Oc1ccc(Cl)cc1Cl" ?
Out: 0.3 µg/mL

In: Fill blank: measured MIC of the compound "Oc1cc(F)ccc1Oc1ccccc1" is ____.
Out: 0.6 µg/mL

In: Given the compound "Oc1cc(Cl)ccc1Oc1ccccc1" , what is its reported MIC?
Out: 0.07 µg/mL
